# test.summary: xn = mol fraction of the nth substance listed, in the solute-free solvent
# experimental.parameters: 323.15 K; x2 = 0.6
recorded.metric: solubility (g/100 g solution)

| compound | endpoint.result |
| --- | --- |
| CC(C)C(=O)Nc1ccc([N+](=O)[O-])c(C(F)(F)F)c1 + CC(C)=O + CC(C)O | 73.9 |
| Cl.NC1CCSC1=O (centres undefined) + CO + CC#N | 7.06 |
| CC(C)C(=O)Nc1ccc([N+](=O)[O-])c(C(F)(F)F)c1 + C1CCOC1 + CC(C)O | 73.3 |
| CC(C)C(=O)Nc1ccc([N+](=O)[O-])c(C(F)(F)F)c1 + CCOC(C)=O + CC(C)O | 62.5 |

###

# test.summary: xn = mol fraction of the nth substance listed, in the solute-free solvent
# experimental.parameters: 313.15 K; x2 = 0.2812
Listing of entries alongside the reported solubility (g/100 g solution).

| compound | solubility (g/100 g solution) |
| --- | --- |
| Nc1cc(-c2ccncc2)c[nH]c1=O + CCO + O | 0.014 |
| O=C1C=CC(=O)N1c1ccccc1Br + CCO + O | 12.3 |
| O=c1cc(CBr)c2ccccc2[nH]1 + CCO + O | 0.168 |
| CC(C)C(=O)Nc1ccc([N+](=O)[O-])c(C(F)(F)F)c1 + CCO + O | 3.31 |
| Nc1ncc(Br)nc1Br + CCO + O | 0.546 |

###

# test.summary: xn = mol fraction of the nth substance listed, in the solute-free solvent
# experimental.parameters: 318.15 K; x2 = 0.06974
Kind request: treat 0.2 as inclusive, so solubility (g/100 g solution) at 0.2 or higher is Condition met, anything lower is Condition not met.

| compound | label |
| --- | --- |
| O=c1cc(CBr)c2ccccc2[nH]1 + CC(C)O + O | Condition not met |
| O=c1cc(CBr)c2ccccc2[nH]1 + CCCO + O | Condition not met |
| Nc1ncc(Br)nc1Br + CC(C)O + O | Condition not met |
| CC(C)C(=O)Nc1ccc([N+](=O)[O-])c(C(F)(F)F)c1 + CC(C)O + O | Condition not met |
| O=C1C=CC(=O)N1c1ccccc1Br + CC(C)O + O | Condition met |

###

# test.summary: xn = mol fraction of the nth substance listed, in the solute-free solvent
# experimental.parameters: 283.15 K; x2 = 0.5454
Kind request: treat 0.2 as inclusive, so solubility (g/100 g solution) at 0.2 or higher is 1, anything lower is 0.

| compound | label |
| --- | --- |
| O=c1cc(CBr)c2ccccc2[nH]1 + CCCO + O | 0 |
| Nc1ncc(Br)nc1Br + CC(C)O + O | 1 |
| O=c1cc(CBr)c2ccccc2[nH]1 + CC(C)O + O | 0 |
| CC(C)C(=O)Nc1ccc([N+](=O)[O-])c(C(F)(F)F)c1 + CC(C)O + O | 1 |
| O=C1C=CC(=O)N1c1ccccc1Br + CC(C)O + O | 1 |

###

# test.summary: xn = mol fraction of the nth substance listed, in the solute-free solvent
# experimental.parameters: 293.15 K; x2 = 0.1139
recorded.metric: solubility (g/100 g solution)

| compound | endpoint.result |
| --- | --- |
| O=C1C=CC(=O)N1c1ccccc1Br + CC(C)O + O | 2.7 |
| Nc1ncc(Br)nc1Br + CC(C)O + O | 0.117 |
| O=c1cc(CBr)c2ccccc2[nH]1 + CCCO + O | 0.0756 |
| O=c1cc(CBr)c2ccccc2[nH]1 + CC(C)O + O | 0.0556 |
| CC(C)C(=O)Nc1ccc([N+](=O)[O-])c(C(F)(F)F)c1 + CC(C)O + O | 0.279 |

Value source: the CheMixHub drug solubility set
